Target sequence: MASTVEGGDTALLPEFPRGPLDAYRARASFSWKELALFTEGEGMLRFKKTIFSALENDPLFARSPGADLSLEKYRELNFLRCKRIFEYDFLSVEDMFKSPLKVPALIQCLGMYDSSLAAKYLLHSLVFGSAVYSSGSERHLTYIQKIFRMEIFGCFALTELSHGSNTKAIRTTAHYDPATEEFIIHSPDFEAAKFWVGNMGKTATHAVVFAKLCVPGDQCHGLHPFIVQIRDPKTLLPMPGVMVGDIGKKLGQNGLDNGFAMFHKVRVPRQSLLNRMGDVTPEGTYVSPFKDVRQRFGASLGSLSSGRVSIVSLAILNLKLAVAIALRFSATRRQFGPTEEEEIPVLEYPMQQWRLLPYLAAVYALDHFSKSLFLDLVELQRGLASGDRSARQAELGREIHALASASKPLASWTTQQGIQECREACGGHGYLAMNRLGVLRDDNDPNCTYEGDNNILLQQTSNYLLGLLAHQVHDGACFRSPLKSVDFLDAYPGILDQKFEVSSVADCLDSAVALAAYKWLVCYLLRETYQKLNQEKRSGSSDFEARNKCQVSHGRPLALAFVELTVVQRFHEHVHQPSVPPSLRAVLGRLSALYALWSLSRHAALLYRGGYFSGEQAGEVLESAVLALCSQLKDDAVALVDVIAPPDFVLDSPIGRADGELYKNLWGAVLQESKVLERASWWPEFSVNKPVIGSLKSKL
The source made the active and inactive calls.
Return exactly one item of 1 = active, 0 = inactive

Field: example entries. Status: answers known.
O=C(Nc1cccc(Cl)c1)Nc1ncc(CCNc2ncnc3ccsc23)s1 ... 1
CCN1CCN(Cc2ccc(-c3cc4c(N[C@H](C)c5ccccc5)ncnc4[nH]3)cc2)CC1 ... 0

## Task What classification did CNC(=O)c1ccc(-c2cnc3ncc(Cc4ccc5ncccc5c4)n3n2)cc1F end up with in this test?
## Result 0

## Task What classification did COc1ccc(-c2ccc3c(N4CCOC[C@@H]4C)nc(N4CCOC[C@@H]4C)nc3n2)cc1CO end up with in this test?
## Result 0

## Task What classification did COc1cc(CCc2cc(NC(=O)c3ccc(N4C[C@@H](C)N[C@@H](C)C4)cc3)n[nH]2)cc(OC)c1 end up with in this test?
## Result 0

## Task What classification did CNC(=O)c1ccc(C)c(-n2c(C)cc(OCc3ccc(F)cc3F)c(Br)c2=O)c1 end up with in this test?
## Result 0

## Task What classification did CNC(=O)CN1CCC(Oc2cc3c(Nc4cccc(Cl)c4F)ncnc3cc2OC)CC1 end up with in this test?
## Result 0

## Task What classification did CN1CCC(CNc2ccc3ncc(-c4cccc(OC(F)(F)F)c4)n3n2)CC1 end up with in this test?
## Result 0
